- Study system: UniProt:Q9NY33
- Sequence (Q9NY33 whole entry): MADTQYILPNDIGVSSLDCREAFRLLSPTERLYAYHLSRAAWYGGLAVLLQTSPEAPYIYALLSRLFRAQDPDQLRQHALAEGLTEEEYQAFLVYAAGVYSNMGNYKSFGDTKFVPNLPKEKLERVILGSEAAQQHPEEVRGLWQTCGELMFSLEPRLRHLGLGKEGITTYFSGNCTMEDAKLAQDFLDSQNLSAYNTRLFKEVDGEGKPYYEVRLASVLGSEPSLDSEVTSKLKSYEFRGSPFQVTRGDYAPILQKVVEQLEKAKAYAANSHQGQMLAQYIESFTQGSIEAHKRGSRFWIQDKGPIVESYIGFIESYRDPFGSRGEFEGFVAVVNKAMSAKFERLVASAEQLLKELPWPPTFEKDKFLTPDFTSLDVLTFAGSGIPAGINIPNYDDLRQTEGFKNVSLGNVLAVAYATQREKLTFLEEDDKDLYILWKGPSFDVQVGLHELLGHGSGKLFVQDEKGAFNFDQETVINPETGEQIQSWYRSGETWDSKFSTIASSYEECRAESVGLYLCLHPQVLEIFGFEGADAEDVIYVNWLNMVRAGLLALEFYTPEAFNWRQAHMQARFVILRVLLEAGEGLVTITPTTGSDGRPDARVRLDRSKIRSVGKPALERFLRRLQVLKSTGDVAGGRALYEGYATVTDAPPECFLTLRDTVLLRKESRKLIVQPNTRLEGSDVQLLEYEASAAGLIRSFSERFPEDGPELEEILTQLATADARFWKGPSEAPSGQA
Decide using IC50 alone. Strictly below 70 µM: Fulfilled. Equal to or above 70 µM: Not fulfilled.

Query :: Is 70 µM strictly greater than the compound's reported IC50? compound: O=c1c(O)c(-c2ccccc2)oc2cc(O)ccc12 [3,7-dihydroxy-2-phenyl-4H-chromen-4-one]
Result :: Not fulfilled

Query :: Is 70 µM strictly greater than the compound's reported IC50? compound: O=c1c(O)c(-c2ccccc2)oc2ccc(O)cc12 [3,6-dihydroxy-2-phenyl-4H-chromen-4-one]
Result :: Fulfilled

Query :: Is 70 µM strictly greater than the compound's reported IC50? compound: O=c1cc(-c2ccccc2)oc2cc(O)cc(O)c12 [5,7-dihydroxy-2-phenyl-4H-chromen-4-one]
Result :: Not fulfilled

Query :: Is 70 µM strictly greater than the compound's reported IC50? compound: "O=c1cc(-c2ccc(O)c(O)c2)oc2cc(O)cc(O)c12"
Result :: Fulfilled

Query :: Is 70 µM strictly greater than the compound's reported IC50? compound: O=c1c(O)c(-c2ccccc2)oc2ccccc12 [3-hydroxy-2-phenyl-4H-chromen-4-one]
Result :: Not fulfilled

Query :: Is 70 µM strictly greater than the compound's reported IC50? compound: "O=c1cc(-c2ccc(O)cc2)oc2cc(O)cc(O)c12"
Result :: Fulfilled

Query :: Is 70 µM strictly greater than the compound's reported IC50? compound: "O=c1c(O)c(-c2ccc(O)c(O)c2)oc2cc(O)ccc12"
Result :: Fulfilled

Query :: Is 70 µM strictly greater than the compound's reported IC50? compound: "O=c1c(O)c(-c2ccc(O)c(O)c2)oc2cc(O)cc(O)c12"
Result :: Not fulfilled

Query :: Is 70 µM strictly greater than the compound's reported IC50? compound: "O=c1c(O)c(-c2ccccc2)oc2cc(O)cc(O)c12"
Result :: Fulfilled

Query :: Is 70 µM strictly greater than the compound's reported IC50? compound: O=c1cc(-c2ccccc2)oc2ccc(O)cc12 [6-hydroxy-2-phenyl-4H-chromen-4-one]
Result :: Not fulfilled
